These entries and their values trace back to patent US10183037B2.

Measured log10 of EC90 values are reported for all entries that follow.
Test system: HCV replicon RNA-containing Huh7 cells (clone A cells)
assay: HCV replicon assay (replicon RNA by RT-PCR, ΔCt HCV, EC90)
Format: cell-based
test.settings: Hepatitis C virus, Huh-7, 96 h
Description: HCV replicon assay. HCV replicon RNA-containing Huh7 cells (clone A cells; Apath, LLC, St. Louis, Mo.) were kept at exponential growth in Dulbecco's modified Eagle's medium (high glucose) containing 10% fetal bovine serum, 4 mM L-glutamine and 1 mM sodium pyruvate, 1×nonessential amino acids, and G418 (1,000 μg/ml). Antiviral assays were performed in the same medium without G418. Cells were seeded in a 96-well plate at 1,500 cells per well, and test compounds were added immediately after seeding. […]
Use the decimal logarithm of EC90 (µM).

| compound | assay.result |
| --- | --- |
| COC(=O)[C@H](C)NP(=O)(OC[C@H]1O[C@@H](n2ccc(N)nc2=O)[C@](C)(F)[C@@H]1O)Oc1ccccc1 (stereo partly drawn) [Example 10] | 1.28 |
| CC(C)OC(=O)[C@H](C)NP(=O)(OC[C@H]1O[C@@H](n2ccc(=O)[nH]c2=O)[C@](C)(F)[C@@H]1O)Oc1ccccc1 (stereo partly drawn) [compound 25] | -0.41 |
| C[C@H](NP(=O)(OC[C@H]1O[C@@H](n2ccc(=O)[nH]c2=O)[C@](C)(F)[C@@H]1O)Oc1ccccc1)C(=O)OC1CCCCC1 (stereo partly drawn) [compound 49] | -0.90 |
| CC(C)OC(=O)[C@H](C)NP(=O)(OC[C@H]1O[C@@H](n2ccc(=O)[nH]c2=O)[C@](C)(F)[C@@H]1O)Oc1ccc(Cl)cc1 (stereo partly drawn) [compound 39] | -0.33 |
| COC(=O)[C@H](C)NP(=O)(OC[C@H]1O[C@@H](n2ccc(=O)[nH]c2=O)[C@](C)(F)[C@@H]1O)Oc1ccccc1 (stereo partly drawn) [Example 5] | 0.48 |
| COC(=O)[C@H](C)NP(=O)(OC[C@H]1O[C@@H](n2ccc(=O)[nH]c2=O)[C@](C)(F)[C@@H]1O)Oc1ccc(Br)cc1 (stereo partly drawn) [Example 8] | 0.32 |

Q: Please report the recorded log10 of EC90 for CCOC(=O)[C@H](C)NP(=O)(OC[C@H]1O[C@@H](n2ccc(=O)[nH]c2=O)[C@](C)(F)[C@@H]1O)Oc1ccc(F)cc1 (stereo partly drawn) [compound 27] .
A: -0.18

Q: Please report the recorded log10 of EC90 for CC(C)OC(=O)[C@H](C)NP(=O)(OC[C@H]1O[C@@H](n2ccc(=O)[nH]c2=O)[C@](C)(F)[C@@H]1O)Oc1ccc(F)cc1 (stereo partly drawn) [compound 28] .
A: -0.12
